Numbers sourced from the supplement of paper PMC10307832.

- System: NCI-H1792
- Experiment description: relative viability (nuclei count vs DMSO), 5 days (fraction); higher = more cells survive
- Stated conditions: first compound 0.8 µM
Measured attribute: relative viability
Answers are plain numbers.

See these solved cases before continuing.
Problem: Entry O=c1cc(-c2cccc3c2Sc2ccccc2S3)oc(N2CCOCC2)c1 + N=C(N)NC(=N)NCCc1ccccc1 [Phenformin] (partner 250 µM) needs its relative viability filled in; supply it.
Result: 0.258

Problem: Let me know recorded relative viability for O=c1cc(-c2cccc3c2Sc2ccccc2S3)oc(N2CCOCC2)c1 + CC(=O)c1c(C)c2cnc(Nc3ccc(N4CCNCC4)cn3)nc2n(C2CCCC2)c1=O [Palbociclib] (partner 0.5 µM) , thanks.
Result: 0.635

Hi, could you look up relative viability for each item in my list?
1. O=c1cc(-c2cccc3c2Sc2ccccc2S3)oc(N2CCOCC2)c1 + CS(=O)(=O)CCNCc1ccc(-c2ccc3ncnc(Nc4ccc(OCc5cccc(F)c5)c(Cl)c4)c3c2)o1 [Lapatinib] (partner 2 µM)
2. COc1nc(C)cnc1NS(=O)(=O)c1cccnc1-c1ccc(-c2nnco2)cc1 [Zibotentan] + N=C(N)NC(=N)NCCc1ccccc1 [Phenformin] (partner 250 µM)
3. COc1nc(C)cnc1NS(=O)(=O)c1cccnc1-c1ccc(-c2nnco2)cc1 [Zibotentan] + C[C@@H](Oc1cc(-c2cnn(C3CCNCC3)c2)cnc1N)c1c(Cl)ccc(F)c1Cl [Crizotinib] (partner 1 µM)
4. O=c1cc(-c2cccc3c2Sc2ccccc2S3)oc(N2CCOCC2)c1 + CC(C)C[C@H](NC(=O)[C@H](Cc1ccccc1)NC(=O)c1cnccn1)B(O)O [Bortezomib] (partner 0.002 µM)
5. COc1nc(C)cnc1NS(=O)(=O)c1cccnc1-c1ccc(-c2nnco2)cc1 [Zibotentan] + Nc1nc2[nH]cc(CCc3ccc(C(=O)N[C@@H](CCC(=O)O)C(=O)O)cc3)c2c(=O)[nH]1 [Pemetrexed] (partner 0.2 µM)

Result:
1. 0.824
2. 0.355
3. 0.884
4. 1.05
5. 0.813

# batch size: 7; output relative viability per entry
1. O=c1cc(-c2cccc3c2Sc2ccccc2S3)oc(N2CCOCC2)c1 + Nc1ncn([C@H]2C[C@H](O)[C@@H](CO)O2)c(=O)n1 [Decitabine] (partner 2 µM)
2. COc1nc(C)cnc1NS(=O)(=O)c1cccnc1-c1ccc(-c2nnco2)cc1 [Zibotentan] + Cc1nc(NC(=O)N2CCC[C@H]2C(N)=O)sc1-c1ccnc(C(C)(C)C(F)(F)F)c1 [Alpelisib] (partner 2 µM)
3. COc1nc(C)cnc1NS(=O)(=O)c1cccnc1-c1ccc(-c2nnco2)cc1 [Zibotentan] + Nc1ncn([C@H]2C[C@H](O)[C@@H](CO)O2)c(=O)n1 [Decitabine] (partner 2 µM)
4. O=c1cc(-c2cccc3c2Sc2ccccc2S3)oc(N2CCOCC2)c1 + C[C@@H](Oc1cc(-c2cnn(C3CCNCC3)c2)cnc1N)c1c(Cl)ccc(F)c1Cl [Crizotinib] (partner 1 µM)
5. O=c1cc(-c2cccc3c2Sc2ccccc2S3)oc(N2CCOCC2)c1 + CS(=O)(=O)N1CCN(Cc2cc3nc(-c4cccc5[nH]ncc45)nc(N4CCOCC4)c3s2)CC1 [Pictilisib] (partner 1 µM)
6. O=c1cc(-c2cccc3c2Sc2ccccc2S3)oc(N2CCOCC2)c1 + O=C(c1cc(Cc2n[nH]c(=O)c3ccccc23)ccc1F)N1CCN(C(=O)C2CC2)CC1 [Olaparib] (partner 8 µM)
7. COc1nc(C)cnc1NS(=O)(=O)c1cccnc1-c1ccc(-c2nnco2)cc1 [Zibotentan] + CC1(C)CCC(c2ccc(Cl)cc2)=C(CN2CCN(c3ccc(C(=O)NS(=O)(=O)c4ccc(N[C@H](CCN5CCOCC5)CSc5ccccc5)c(S(=O)(=O)C(F)(F)F)c4)cc3)CC2)C1 [Navitoclax] (partner 0.5 µM)

Result:
[0.45, 0.559, 0.547, 0.987, 0.223, 0.341, 0.588]
